# System: Plasmodium berghei
# assay_text: Screen against P. berghei liver stage (PbLuc), transformed with Luciferase, at 10uM
# Assay type: functional, HepG2
# condition_description: tested at 10 uM
About 8,600 (12%) of roughly 69,000 compounds showed an effect of 50% or more. This is one part of a sample in which strong results are shown more often than they occur.
Threshold-based label: INHIBITION under 20% gives criterion met, INHIBITION not under 20% gives criterion not met.

compound	class_assignment
COc1ccccc1C1=NOC(CC2(C(=O)O)CCOCC2)C1 (stereo unspecified)	criterion not met
COc1cccc(-c2cc(C(=O)NCCCn3nc(C)cc3C)[nH]n2)c1	criterion met
Cn1nc2c(cc1=O)CN(Cc1nc(-c3cccnc3)no1)CC2	criterion met
CS(=O)(=O)N1CCN(C(=O)CCn2cccn2)CC1	criterion met
Cc1nc(CN2CCN(C)C(=O)C23CCN(C(C)C)CC3)cs1	criterion not met
CC1CCN(CCNC(=O)Nc2ccc(F)cc2Cl)CC1	criterion not met
